test system: SK-OV-3; test: NCI tumour cell line growth inhibition, 48 h
The source made the active and inactive calls. Rule as the data show it: active = GI50 up to about 1.1 µM and inactive = higher.
endpoint: GI50

>>> print(df.to_string())
                                    molecule  endpoint        recordedresult
 0  O=C1C=CC(=O)N1c1ccc2c(c1)Cc1cc(NC(=O)C(F)(F)F)ccc1-2      GI50   > 100 µM (inactive)
 1  C=C1C(=O)OC2C1CC[C@H](C)C13OC(=O)CC1[C@@]23C (some centres not stated)      GI50   > 100 µM (inactive)
 2  O=C(CNc1ccccc1[N+](=O)[O-])Nn1cnc2ccc(S(=O)(=O)Nc3ccccc3[N+](=O)[O-])cc2c1=O      GI50   > 100 µM (inactive)
 3     O=C(O)CCSC(=S)Nc1ccc([N+](=O)[O-])cc1      GI50   > 100 µM (inactive)
 4  Cc1ccc(S(=O)(=O)Nn2c(O)c(C#N)c(-c3ccc([N+](=O)[O-])cc3)c(C#N)c2=O)cc1      GI50   > 100 µM (inactive)
 5  CC(C)(CCC(C)(C)N1OC1c1ccccc1)N1OC1c1ccccc1 (configuration not stated)      GI50    62.8 µM (inactive)
 6   COc1cc(/C=C/c2sc3ccccc3[n+]2C)ccc1N(C)C      GI50    23.6 µM (inactive)
 7            CCCCc1ccc(-n2sc3ncccc3c2=O)cc1      GI50    26.9 µM (inactive)
 8  O=c1[nH]c(Cc2ccccc2)nc2c1sc1nc3ccccc3n12      GI50   > 100 µM (inactive)
 9  N#CC12C(=O)N3C(=NC(c4ccccc4)NC3c3ccccc3)C1(C#N)C(c1ccccc1)NC1=C2CCCC1 (configuration not stated)      GI50   > 100 µM (inactive)
10  CC1C2C=C(O)C(=O)C(C2=O)C1c1ccccc1 (configuration not stated)      GI50   > 100 µM (inactive)
11      CCOC(=O)c1cn2c(n1)sc1c(Cl)c(Cl)ccc12      GI50  > 51.8 µM (inactive)
12  COc1ccc(-c2cc(=O)c3cc(O)ccc3o2)c(OC)c1OC      GI50    35.3 µM (inactive)
13  CN(C)NC1=NS(=O)(=O)c2cc3c(=O)n(C)[nH]c3cc2S1      GI50    > 10 µM (inactive)
14  Nc1nc(Cl)nc2c1ncn2C1CCC(COP(=O)(O)OP(=O)(O)OP(=O)(O)O)O1 (configuration not stated)      GI50    57.3 µM (inactive)
15  N#Cc1c(-c2ccc(Cl)cc2)c2c(n(C3OC(CO)C(O)C(O)C3O)c1=S)CCC2 (configuration not stated)      GI50    39.5 µM (inactive)
16          O=C(NCCCCNc1cccccc1=O)OCc1ccccc1      GI50   > 100 µM (inactive)
17  CN(CCNC(=O)c1nn(C)c2c1Cc1ccccc1-2)CCNC(=O)c1nn(C)c2c1Cc1ccccc1-2      GI50    18.2 µM (inactive)
18  COc1ccc(-c2csc(Cc3nc4ccccc4c(=O)n3-c3ccc(Cl)cc3)n2)cc1      GI50   > 100 µM (inactive)
19           CCOC(=O)c1cc(=O)c2cccc3c2n1CCS3      GI50   > 100 µM (inactive)
20         C/C(=N\c1c2ccccc2nc2ccccc12)N(C)C      GI50    22.8 µM (inactive)
21  CC(C)OCC(O)COc1cc(=O)oc2ccccc12 (configuration not stated)      GI50   > 100 µM (inactive)
